# assay.method.text: AUC (0 to 24 hrs) in mouse at 20 mg/kg, iv
# Type: ADME, organism-based
# Parameters: time < 24 hr, dose 20 mg/kg, route intravenous
# stated.conditions: plasma
measurement.name: AUC(0-t) at 24 h

- COCCOc1ccccc1N1CCN(C(=O)C2(Oc3ccc(C(F)(F)F)cc3)CCCN(C(=O)c3cnccc3C(F)(F)F)C2)CC1.Cl (single isomer, unassigned): 3.4 µM·h

====

# assay.method.text: Cmax in mouse at 20 mg/kg, po
# Assay type: ADME, organism-based
# Parameters: dose 20 mg/kg, route oral
# stated.conditions: in vivo
measurement.name: Cmax (nM)

* COCCOc1ccccc1N1CCN(C(=O)C2(Oc3ccc(C(F)(F)F)cc3)CCCN(C(=O)c3cnccc3C(F)(F)F)C2)CC1.Cl (single isomer, unassigned) | 700

Origin of measurements: ChEMBL document CHEMBL3112574
